Reported Ratio values are given for each entry in this list.
System: Opioid receptors mu & kappa (Cavia porcellus)
experiment: Selectivity ratio between mu and kappa opioid receptor from guinea pig brain homogenate

structure.smiles | Ratio
CC[C@H](C)[C@H](NC(=O)CNC(=O)[C@@H](N)Cc1ccc(O)cc1)C(=O)N[C@@H](Cc1ccccc1)C(=O)N[C@@H](CC(C)C)C(=O)N[C@@H](CCCN=C(N)N)C(=O)N[C@@H](CCCN=C(N)N)C(=O)N[C@H](C(=O)N[C@@H](CCCN=C(N)N)C(=O)N1CCC[C@H]1C(=O)N[C@@H](CCCCN)C(N)=O)[C@@H](C)CC | 22
CC[C@H](C)[C@H](NC(=O)[C@H](CCCN=C(N)N)NC(=O)[C@H](CCCN=C(N)N)NC(=O)[C@H](CC(C)C)NC(=O)[C@H](Cc1ccccc1)NC(=O)[C@@H](CCCCN)NC(=O)CNC(=O)[C@@H](N)Cc1ccc(O)cc1)C(=O)N[C@@H](CCCN=C(N)N)C(=O)N1CCC[C@H]1C(=O)N[C@@H](CCCCN)C(N)=O | 5

---

Measured pIC50 (Mu-type opioid receptor (Cavia porcellus, UniProt P97266))
pIC50: −log10 of the molar value.

structure.smiles | pIC50
CC[C@H](C)[C@H](NC(=O)[C@H](CCCN=C(N)N)NC(=O)[C@H](CCCN=C(N)N)NC(=O)[C@H](CC(C)C)NC(=O)[C@H](Cc1ccccc1)NC(=O)[C@H](Cc1ccccc1)NC(=O)CNC(=O)[C@@H](N)Cc1ccc(O)cc1)C(=O)N[C@@H](CCCN=C(N)N)C(=O)N1CCC[C@H]1C(=O)N[C@@H](CCCCN)C(N)=O | 7.57
CC[C@@H](C)[C@@H](NC(=O)CNC(=O)[C@@H](N)Cc1ccc(O)cc1)C(=O)N[C@@H](Cc1ccccc1)C(=O)N[C@@H](CC(C)C)C(=O)N[C@@H](CCCN=C(N)N)C(=O)N[C@@H](CCCN=C(N)N)C(=O)N[C@H](C(=O)N[C@@H](CCCN=C(N)N)C(=O)N1CCC[C@H]1C(=O)N[C@@H](CCCCN)C(N)=O)[C@@H](C)CC | 5.99
CC[C@H](C)[C@H](NC(=O)[C@H](CCCN=C(N)N)NC(=O)[C@H](CCCN=C(N)N)NC(=O)[C@H](CC(C)C)NC(=O)[C@H](Cc1ccccc1)NC(=O)[C@H](Cc1ccc(O)cc1)NC(=O)CNC(=O)[C@@H](N)Cc1ccc(O)cc1)C(=O)N[C@@H](CCCN=C(N)N)C(=O)N1CCC[C@H]1C(=O)N[C@@H](CCCCN)C(N)=O | 6.54

---

Test system: Opioid receptors mu & kappa (Cavia porcellus)
experiment: Selectivity ratio between mu and kappa opioid receptor from guinea pig brain homogenate

structure.smiles | Ratio
CC[C@H](C)[C@H](NC(=O)[C@H](CCCN=C(N)N)NC(=O)[C@H](CCCN=C(N)N)NC(=O)[C@H](CC(C)C)NC(=O)[C@H](Cc1ccccc1)NC(=O)[C@H](Cc1ccccc1)NC(=O)CNC(=O)[C@@H](N)Cc1ccc(O)cc1)C(=O)N[C@@H](CCCN=C(N)N)C(=O)N1CCC[C@H]1C(=O)N[C@@H](CCCCN)C(N)=O | 30
CC[C@H](C)[C@H](NC(=O)[C@H](CCCN=C(N)N)NC(=O)[C@H](CCCN=C(N)N)NC(=O)[C@H](CC(C)C)NC(=O)[C@H](Cc1ccccc1)NC(=O)[C@@H](CCCN=C(N)N)NC(=O)CNC(=O)[C@@H](N)Cc1ccc(O)cc1)C(=O)N[C@@H](CCCN=C(N)N)C(=O)N1CCC[C@H]1C(=O)N[C@@H](CCCCN)C(N)=O | 22
CC[C@H](C)[C@H](NC(=O)[C@H](CCCN=C(N)N)NC(=O)[C@H](CCCN=C(N)N)NC(=O)[C@H](CC(C)C)NC(=O)[C@H](Cc1ccccc1)NC(=O)[C@@H](Cc1ccccc1)NC(=O)CNC(=O)[C@@H](N)Cc1ccc(O)cc1)C(=O)N[C@@H](CCCN=C(N)N)C(=O)N1CCC[C@H]1C(=O)N[C@@H](CCCCN)C(N)=O | 15
